biological target: Recombinant HCV polymerase (Hepatitis C virus genotype 1b, UniProt P26663); construct: Recombinant HCV polymerase was tested for its ability to perform primer/template-directed transcription; experiment: biochemical; conditions: inhibition of polymerase-directed transcription; 30 min at 30° C; 30 nM enzyme; cpm data in triplicate
Sequence (P26663 2420-3010): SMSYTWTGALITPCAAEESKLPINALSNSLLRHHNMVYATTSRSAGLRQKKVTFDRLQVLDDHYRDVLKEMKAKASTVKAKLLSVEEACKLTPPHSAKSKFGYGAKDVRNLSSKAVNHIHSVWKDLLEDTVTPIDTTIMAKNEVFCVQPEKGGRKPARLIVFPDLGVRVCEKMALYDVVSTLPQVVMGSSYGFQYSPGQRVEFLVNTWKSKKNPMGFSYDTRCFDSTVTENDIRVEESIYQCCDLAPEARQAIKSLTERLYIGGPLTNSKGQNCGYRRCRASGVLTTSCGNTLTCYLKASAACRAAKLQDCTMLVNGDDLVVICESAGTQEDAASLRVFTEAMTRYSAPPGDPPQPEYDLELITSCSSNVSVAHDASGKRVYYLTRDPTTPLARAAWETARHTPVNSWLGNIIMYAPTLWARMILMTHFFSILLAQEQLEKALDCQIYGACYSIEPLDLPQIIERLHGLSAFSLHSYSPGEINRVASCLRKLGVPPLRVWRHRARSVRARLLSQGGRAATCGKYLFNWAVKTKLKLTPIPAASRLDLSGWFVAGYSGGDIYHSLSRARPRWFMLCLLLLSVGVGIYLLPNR
IC50 strictly under 6 nM means rule met; at 6 nM or over means rule not met.

Worked set:
> print(dat)
                                   molecule                             system.tested         class
1  Cc1c(CC2=C(O)CC(CCc3ccc(C(C)(C)C#N)c(F)c3)(C3CCCC3)OC2=O)cnn1C (stereo not shown) [A(94)]  Recombinant HCV polymerase (Hepatitis C virus genotype 1b, UniProt P26663)  rule not met
2  Cc1cc(C)n2nc(CC3=C(O)CC(CCc4ccc(O)c(CC(F)(F)F)c4)(C4CCCC4)OC3=O)nc2n1 (single isomer, unassigned) [A(74)]  Recombinant HCV polymerase (Hepatitis C virus genotype 1b, UniProt P26663)      rule met
3  CCc1nn2c(=O)cc(CC3=C(O)CC(CCc4ccc(C(C)(C)C#N)c(F)c4)(C4CCCC4)OC3=O)nc2s1 (stereo not shown) [B(20)]  Recombinant HCV polymerase (Hepatitis C virus genotype 1b, UniProt P26663)      rule met
4  Cc1cc(CCC2(C3CCCC3)CC(O)=C(Cc3nc4nc(C)cc(C)n4n3)C(=O)O2)cc(C)n1 (stereo not shown) [A(18)]  Recombinant HCV polymerase (Hepatitis C virus genotype 1b, UniProt P26663)  rule not met
5  Cc1nn(C)c(C)c1CC1=C(O)CC(CCc2ccc(C(C)(C)C#N)c(Cl)c2)(C2CCCC2)OC1=O (stereo not shown) [B(25)]  Recombinant HCV polymerase (Hepatitis C virus genotype 1b, UniProt P26663)  rule not met

// switching to the query molecule
## Task is_below(IC50, 6 nM) for CCCOc1cc(O)c(CC)cc1CCC1(C2CCCC2)CC(O)=C(Cc2nc3ncc(C)cn3n2)C(=O)O1 (stereo not shown) [A(47)] ?
## Result rule met

src = patent US7151105B2
